B1: CPEB3 Ribozyme (parent)
chain: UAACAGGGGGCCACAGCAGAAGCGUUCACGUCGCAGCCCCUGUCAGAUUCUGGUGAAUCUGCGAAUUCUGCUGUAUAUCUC

Variants of: B1
ASSAY PROCEDURE: self-cleavage, relative activity (ratio to wild type); higher = more cleavage; in vitro, sequencing
// label = Satisfied if self-cleavage is not less than 0.3, otherwise Not satisfied

>  <BIOSEQUENCE>
UAACAGGGGGCCUCAGCAGAAGCGUUCACGUCGCAGCCCCUGUCAGAUUCUGGUGAAUCUGCGAAUUCUGAUGUAUAUCUC

>  <CATEGORY>
Satisfied

$$$$
>  <BIOSEQUENCE>
UAACAGGGGGCCACAGCAGAAGCGGUCACGUCGCAGCCCCUGUCAGAUUCUGGUGGAUCUGCGAAUUCUGCUGUAUAUCUC

>  <CATEGORY>
Satisfied

$$$$
>  <BIOSEQUENCE>
UAACAGGGGGCCACAGCAGAAGCGUUCUCGUCGCAGCCCCUGUCAGAUUCUGGUGAAUCUGCGAAUUCUGCUGUAUAUUUC

>  <CATEGORY>
Satisfied

$$$$
>  <BIOSEQUENCE>
UAACAGGGGGCCACGGCAGAAGCGUUCACGUCGCAGCCCCUGUUAGAUUCUGGUGAAUCUGCGAAUUCUGCUGUAUAUCUC

>  <CATEGORY>
Satisfied

$$$$
>  <BIOSEQUENCE>
UAACAGGGGGCCACAGCAGAAGCGUUCACGUCGCGGCCCCUGUCAGAUUCUGGUGAAUCUGCGUAUUCUGCUGUAUAUCUC

>  <CATEGORY>
Satisfied

$$$$
>  <BIOSEQUENCE>
UAACAGGGGGCCACAGCAGAAGCGUUCACGUCGCAGCCCCUGUCAGAUUCUGGUGAAUCUGCGAAUUCUGCUGCAUAACUC

>  <CATEGORY>
Satisfied

$$$$
>  <BIOSEQUENCE>
UAACAGGGGGCCACAGCAAAAGCGUUCACGUCGCAGCCCCUGUCAGAUUCUGGUGAAUCUGCGAAUCCUGCUGUAUAUCUC

>  <CATEGORY>
Not satisfied

$$$$
>  <BIOSEQUENCE>
UAACAGGGGGCCACAGCAGAAGCGUUCACGUCGCAGCCCCUGUCAGAUUCUGGUGAAUCUGCGAAUUUUGCUGUAUAACUC

>  <CATEGORY>
Satisfied

$$$$
>  <BIOSEQUENCE>
UAACAGGGGGCCACAGCAGAAGCGUUCACGUCGCAGCCCUUGUCAGAUUCUGGUGAAUCUGCGAAUUCUGCCGUAUAUCUC

>  <CATEGORY>
Satisfied

$$$$
>  <BIOSEQUENCE>
UAACAGGGGGCCACAGCAGAAGCGUUCACGUCGCCGCCCCUGUCAGAUUCUGGUGAAUCUGCGAAUUCGGCUGUAUAUCUC

>  <CATEGORY>
Satisfied

$$$$
>  <BIOSEQUENCE>
UAACAGGGGGCCACAGCAGAAGCGUUCACGACGCAGCCCCUGUCAGAUUCUGGUGAAUCUGCGCAUUCUGCUGUAUAUCUC

>  <CATEGORY>
Not satisfied

$$$$
>  <BIOSEQUENCE>
UAACAGUGGGCCACAGCAGAAGCGUUCACGUCGCAGCCCCUGUCUGAUUCUGGUGAAUCUGCGAAUUCUGCUGUAUAUCUC

>  <CATEGORY>
Not satisfied

$$$$
>  <BIOSEQUENCE>
UAACAGGGGGCCACAGCAGAAGCGUUCACAUCGCAGCCCCUGCCAGAUUCUGGUGAAUCUGCGAAUUCUGCUGUAUAUCUC

>  <CATEGORY>
Not satisfied

$$$$
>  <BIOSEQUENCE>
UAACAGGUGGCCAUAGCAGAAGCGUUCACGUCGCAGCCCCUGUCAGAUUCUGGUGAAUCUGCGAAUUCUGCUGUAUAUCUC

>  <CATEGORY>
Not satisfied

$$$$
>  <BIOSEQUENCE>
UAACAGGGGGCCACUGCAGAAGCGUUCACGUCGCAGCCCCUGUCAGAAUCUGGUGAAUCUGCGAAUUCUGCUGUAUAUCUC

>  <CATEGORY>
Not satisfied

$$$$
>  <BIOSEQUENCE>
UAACAGGGGGCCACAGCAGAAGCGUUCACGUCGCAGCCCCUGUCAGAUUCUGGUGAAUCUGCGAAUUCAGCUGUAUAUCUU

>  <CATEGORY>
Satisfied

$$$$
>  <BIOSEQUENCE>
UAACAGGGGGCAACAGCAGAAGCGUUCACGUCGCAGCCCCUGUCAGAUUCUGGUGAAUCUGCGAAUUCUGCUGUAUAUCCC

>  <CATEGORY>
Satisfied

$$$$
>  <BIOSEQUENCE>
UAACAGGGGGCCACAGCAGAAGCGUUCACGACGCAGCCUCUGUCAGAUUCUGGUGAAUCUGCGAAUUCUGCUGUAUAUCUC

>  <CATEGORY>
Satisfied

$$$$
>  <BIOSEQUENCE>
UAACAGGGGGCCACAGCAGAAGCGUUCACGUCGCAGCCCCUGUCAGAUUCUGGUGAAUCUGCGAAUUCUGCUCUAUAUCUC

>  <CATEGORY>
Satisfied

$$$$
>  <BIOSEQUENCE>
UAACAGGGGGCCCCAGCAGAAGCGUUCACGUCGCAGCCCCUGUCAGAUUCCGGUGAAUCUGCGAAUUCUGCUGUAUAUCUC

>  <CATEGORY>
Satisfied

$$$$
>  <BIOSEQUENCE>
UAGCAGGGGGCCACAGCAGAAGCGUUCACGUCGCAGCCCCUGUCAGAUUCUGGUGAAUCUGCGAAUUCUGCUGUUUAUCUC

>  <CATEGORY>
Satisfied

$$$$
>  <BIOSEQUENCE>
UAACGGGGGGCCACAGCAGAAGCGUUCACGUCGCAGCCCCUGUCAGAUUCUGGUGAAUCUGCGAAUUCUGCUGUAGAUCUC

>  <CATEGORY>
Satisfied

$$$$
